- Tested on: LEXF CCRFCEM
- Measurement protocol: Clonogenic assay, LEXF CCRFCEM
- Assay type: cell-based
- Assay conditions: Homo sapiens, CCRF-CEM, Leukemia, ALL, T lymphoblast, soft agar, read-out: IC50 (colony formation)
pIC50: −log10 of the molar value.
Property name: pIC50

Line notation	Tested target	Property name	Result number
COc1cccc(-c2ccccc2[C@H]2Cc3nc(N)nc(C)c3C(=O)N2)n1	LEXF CCRFCEM	pIC50	7.57

----------
- System: GXF 1172
- Measurement protocol: Clonogenic assay, GXF 1172
- Type: cell-based
- Assay conditions: Homo sapiens, Stomach, Signet-ring cell carcinoma, soft agar, read-out: IC50 (colony formation)
- Description: The anticancer activity of (R)-2-amino-7-[2-(6-methoxy-pyridin-2-yl)-phenyl]-4-methyl-7,8-dihydro-6H-pyrido[4,3-d]pyrimidin-5-one is evaluated in 30 human tumor xenografts in vitro using a clonogenic assay. In this assay, human cells derived from cancer patients are evaluated for the capacity of (R)-2-amino-7-[2-(6-methoxy-pyridin-2-yl)-phenyl]-4-methyl-7,8-dihydro-6H-pyrido[4,3-d]pyrimidin-5-one to inhibit the formation of 3 dimensional colonies. […]
Property name: IC50 (nM)

Line notation	Result number
COc1cccc(-c2ccccc2[C@H]2Cc3nc(N)nc(C)c3C(=O)N2)n1	43

Ref: patent US20130045983A1
